# assayed target: T1, His-tagged human HER3 antigen (human, UniProt P21860 20-643)
# T1 construct: Soluble antigen used as analyte in SPR; not shown: His tag
# experiment description: SPR, Biacore 8K; antibody captured, His-tagged human HER3 antigen 6.25-400 nM as analyte; 1:1 Langmuir
pKd: −log10 of the molar value.
value type: pKd

- binder: "Anti-HER3 antibody A (antibody, human IgG1, kappa, V domains shown) VH: QVQLVQSGGGLVQPGRSLRLSCAASGFTFDDYAMHWVRQAPGKGLEWVSGISWNSGSIGYADSVKGRFTISRDNAKNSLYLQMNSLRAEDTALYYCAKEGLPGLDYWGQGTLVTVSS VL: DIQMTQSPSSLSASIGDRATITCRASQHVGTYLNWYQQKPGKTPKLLISGAANLQSGVPSRFSGSGSGTDFTLTISSLQPEDFATYYCQQSYNTPPFSFGQGTKVEIKR"
  numeric result: 7.84
- binder: "Antibody A N93T (antibody, human IgG1, kappa, V domains shown, Differs from antibody A only by N to T at position 93 of VL) VH: QVQLVQSGGGLVQPGRSLRLSCAASGFTFDDYAMHWVRQAPGKGLEWVSGISWNSGSIGYADSVKGRFTISRDNAKNSLYLQMNSLRAEDTALYYCAKEGLPGLDYWGQGTLVTVSS VL: DIQMTQSPSSLSASIGDRATITCRASQHVGTYLNWYQQKPGKTPKLLISGAANLQSGVPSRFSGSGSGTDFTLTISSLQPEDFATYYCQQSYTTPPFSFGQGTKVEIKR"
  numeric result: 7.01
- binder: "Antibody A N93S (antibody, human IgG1, kappa, V domains shown, Differs from antibody A only by N to S at position 93 of VL) VH: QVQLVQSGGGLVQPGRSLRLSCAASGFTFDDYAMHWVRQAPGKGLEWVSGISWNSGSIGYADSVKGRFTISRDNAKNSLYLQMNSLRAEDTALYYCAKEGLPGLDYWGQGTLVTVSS VL: DIQMTQSPSSLSASIGDRATITCRASQHVGTYLNWYQQKPGKTPKLLISGAANLQSGVPSRFSGSGSGTDFTLTISSLQPEDFATYYCQQSYSTPPFSFGQGTKVEIKR"
  numeric result: 7.49
